Form field: hERG current change (%, negative = inhibition) at 10uM (one value per entry).
- Experimental Target: human ether-à-go-go-related gene (hERG) potassium channel (human, UniProt Q12809);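 note: peak tail current of the secondary pulse compared with the same well before compound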
- Sequence (Q12809 whole entry, looked up): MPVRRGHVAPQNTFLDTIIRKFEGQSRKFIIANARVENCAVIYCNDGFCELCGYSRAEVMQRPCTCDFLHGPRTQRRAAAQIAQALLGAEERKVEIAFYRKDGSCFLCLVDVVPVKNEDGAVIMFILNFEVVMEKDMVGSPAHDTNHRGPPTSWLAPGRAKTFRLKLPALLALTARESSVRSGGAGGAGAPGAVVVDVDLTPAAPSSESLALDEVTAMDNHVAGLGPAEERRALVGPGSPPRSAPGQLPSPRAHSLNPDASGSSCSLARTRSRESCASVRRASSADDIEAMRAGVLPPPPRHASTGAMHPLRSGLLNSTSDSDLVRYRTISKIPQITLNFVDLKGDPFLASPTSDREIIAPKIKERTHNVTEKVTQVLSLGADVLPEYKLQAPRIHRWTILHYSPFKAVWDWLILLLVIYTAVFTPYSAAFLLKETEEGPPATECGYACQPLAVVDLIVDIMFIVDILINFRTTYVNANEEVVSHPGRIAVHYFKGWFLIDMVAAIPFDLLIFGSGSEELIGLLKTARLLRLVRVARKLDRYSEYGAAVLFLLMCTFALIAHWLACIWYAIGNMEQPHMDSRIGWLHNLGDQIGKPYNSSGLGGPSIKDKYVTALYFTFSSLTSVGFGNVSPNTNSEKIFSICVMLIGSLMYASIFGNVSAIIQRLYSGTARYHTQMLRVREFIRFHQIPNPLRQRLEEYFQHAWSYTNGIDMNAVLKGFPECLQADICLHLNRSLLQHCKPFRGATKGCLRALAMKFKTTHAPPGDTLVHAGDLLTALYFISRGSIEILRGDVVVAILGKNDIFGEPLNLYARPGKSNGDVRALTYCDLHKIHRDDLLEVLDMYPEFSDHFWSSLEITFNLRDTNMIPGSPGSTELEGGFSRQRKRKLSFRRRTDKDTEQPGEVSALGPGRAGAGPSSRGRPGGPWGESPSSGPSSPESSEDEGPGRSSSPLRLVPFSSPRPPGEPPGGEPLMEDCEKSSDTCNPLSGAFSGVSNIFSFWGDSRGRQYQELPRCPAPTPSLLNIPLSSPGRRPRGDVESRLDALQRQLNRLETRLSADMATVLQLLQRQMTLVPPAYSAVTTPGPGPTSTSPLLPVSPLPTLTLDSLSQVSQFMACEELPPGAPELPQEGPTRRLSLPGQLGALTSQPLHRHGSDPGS
- Protocol Notes: primary screen, population patch clamp on CHO cells stably expressing hERG; higher = less effect of the substance
About 14,000 (4.5%) of roughly 310,000 compounds showed an effect of 50% or more. The effect is printed as a negative number. Many of the other results were omitted from the sample, so strong results are more common in it than they were.

Reference set (3 entries):
>  <Molecule>
CCOCCCn1cnc2c(c1=O)c1nc3ccccc3nc1n2-c1ccccc1

>  <Recorded Value>
-30.6%

$$$$
>  <Molecule>
CC(C)CNc1nc(Oc2ccc(=O)[nH]n2)nc(N2CCOCC2)n1

>  <Recorded Value>
7.99%

$$$$
>  <Molecule>
O=C(NC(=S)NCc1ccccc1)c1ccc(Br)o1

>  <Recorded Value>
-7.42%

$$$$

Looking for the measured hERG current change (%, negative = inhibition) at 10uM of COCc1cc(C)nc(SCC(=O)Nc2ccc3c(c2)OCCO3)c1C#N , can you help?
13.4%

hERG current change (%, negative = inhibition) at 10uM for COCCCn1cnc2c(c1=O)c1nc3ccccc3nc1n2-c1ccc(C)cc1 ?
-37%

Requested field: hERG current change (%, negative = inhibition) at 10uM. Item: CC(=O)Nc1c(NCC(C)C)c2ccccc2oc1=O
16.7%

For COC(=O)c1cc(C)nc2c1C(=O)C(=O)C=C2N1CCOCC1 , what is its reported hERG current change (%, negative = inhibition) at 10uM?
-2.1%
